test system: SW1271 complex spheroids with HUVEC/MSC, growth, % test/control; test: Anticancer human tumor SW1271 cell line growth inhibition [AhR]; conditions: curve of first compound; second compound 10 µM;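 note: spheroids exposed to agents for 7 days before readout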
pIC50: −log10 of the molar value.
Quantity Name: pIC50

For orientation, consider the following solved cases.
CCN(c1cc(-c2ccc(CN3CCOCC3)cc2)cc(C(=O)NCc2c(C)cc(C)[nH]c2=O)c1C)C1CCOCC1 + CC(CO)NC(=O)c1cc(-c2ccc(Cl)cc2)nn(-c2cnn(C)c2)c1=O: < 5.52
CC(C)c1c(-c2ccccc2)nc2c(C#N)c[nH]n2c1=O + Cc1ccccc1N=Nc1ccc(NC(=O)c2ccnn2C)c(C)c1: < 5.00
COc1cc(C2c3cc4c(cc3C(OC3OC5COC(C)OC5C(O)C3O)C3COC(=O)C23)OCO4)cc(OC)c1O (stereo unspecified) + CC(CO)NC(=O)c1cc(-c2ccc(Cl)cc2)nn(-c2cnn(C)c2)c1=O: 5.54
CC1(C)CCC(CN2CCN(c3ccc(C(=O)NS(=O)(=O)c4ccc(NCC5CCOCC5)c([N+](=O)[O-])c4)c(Oc4cnc5[nH]ccc5c4)c3)CC2)=C(c2ccc(Cl)cc2)C1 + Cc1cncc(-c2nc(NCCc3c[nH]c4ccccc34)c3ncn(C(C)C)c3n2)c1: > 7.50
CC1COCCN1c1cc(C2(S(C)(=N)=O)CC2)nc(-c2ccnc3[nH]ccc23)n1 (stereo unspecified) + Cc1cncc(-c2nc(NCCc3c[nH]c4ccccc34)c3ncn(C(C)C)c3n2)c1: > 7.50

Okay, next one:
Challenge: I would be grateful if you could share the reported pIC50 for COc1cccc2c1C(=O)c1c(O)c3c(c(O)c1C2=O)CC(O)(C(=O)CO)CC3OC1CC(N)C(O)C(C)O1 (stereo unspecified) + CC(CO)NC(=O)c1cc(-c2ccc(Cl)cc2)nn(-c2cnn(C)c2)c1=O .
Response given: 6.78
